# Tested on: NCI-H522
# PROTOCOL_DETAILS: NCI tumour cell line growth inhibition, 48 h
Calls of active or inactive are those of the source. No stated cut-off is given here; in the data, active = GI50 up to about 1.1 µM and inactive = higher.
MEASUREMENT_TYPE: GI50

[
  {
    "COMPOUND": "FC(F)(F)C1(C(F)(F)F)C2CCC3(CC(F)(F)C(F)(F)S3)C1C2 (configuration not stated)",
    "MEAS_VALUE": "56.2 µM (inactive)"
  },
  {
    "COMPOUND": "COc1cc(/C=C2/C(=O)N(C(=O)OC(C)C)C(Cc3cc(OC)c(OC)c(C)c3OC)C(=O)N2Cc2ccccc2)c(OC)c(C)c1OC (configuration not stated)",
    "MEAS_VALUE": "3.74 µM (inactive)"
  },
  {
    "COMPOUND": "CC(C)N(C(=O)C12C3C4C5C3C1(C#N)C5C42)C(C)C (configuration not stated)",
    "MEAS_VALUE": "> 100 µM (inactive)"
  },
  {
    "COMPOUND": "C/C=C/C(C#N)O[Si](C)(C)C (configuration not stated)",
    "MEAS_VALUE": "> 100 µM (inactive)"
  },
  {
    "COMPOUND": "CO[C@H](C(=O)O[C@H]1C(=O)N2CCC3CCC1C32C)c1ccccc1 (some centres not stated)",
    "MEAS_VALUE": "> 100 µM (inactive)"
  },
  {
    "COMPOUND": "Nc1nc(Cl)c(N)c(NCC2(CO)CCC(OCc3ccccc3)C2)n1 (configuration not stated)",
    "MEAS_VALUE": "> 100 µM (inactive)"
  },
  {
    "COMPOUND": "O=[N+]([O-])/C=C/c1cn(CCCCCCCCn2cc(/C=C/[N+](=O)[O-])c3ccccc32)c2ccccc12",
    "MEAS_VALUE": "> 10 µM (inactive)"
  },
  {
    "COMPOUND": "COC1=C(C(c2cc(OC)c(OC)c(OC)c2)c2cc3c(cc2OC)OCO3)C(=O)OC1 (configuration not stated)",
    "MEAS_VALUE": "7.8 µM (inactive)"
  },
  {
    "COMPOUND": "O=c1[nH]c2cc(C(F)(F)F)ccc2nc1C(F)(F)F",
    "MEAS_VALUE": "29.4 µM (inactive)"
  },
  {
    "COMPOUND": "c1ccc(NC[Si]23OCCN(CCO2)CCO3)cc1",
    "MEAS_VALUE": "> 100 µM (inactive)"
  }
]

Each of the following entries comes with a recorded value; kindly state GI50 for each.
1. CCC12CCCN(Cc3ccccc3)C1c1c(n(C)c3ccccc13)CC2 (configuration not stated)
2. CC(C)(Oc1ccc2c(=O)cc(-c3ccc(Cl)cc3)oc2c1)C(=O)Nc1c(Cl)cccc1Cl
3. O=C1OC[C@@H]2Cc3c([nH]c4ccccc34)[C@@H](c3ccc(O)cc3)N12

OUTPUT:
1. 61.1 µM (inactive)
2. > 100 µM (inactive)
3. 29.3 µM (inactive)

---

# Tested on: Malme-3M
# PROTOCOL_DETAILS: NCI tumour cell line growth inhibition, 48 h
Active and inactive are the calls of the source. Rule as the data show it: active = GI50 up to about 1.1 µM and inactive = higher.
Assign a class; possible classes are True (active), False (inactive)

[
  {
    "COMPOUND": "Cc1ccc2c(O)cc(-c3ccccc3)nc2n1",
    "CLASS_NAME": "True"
  },
  {
    "COMPOUND": "O=c1c([Se]c2coc3ccccc3c2=O)coc2ccccc12",
    "CLASS_NAME": "False"
  },
  {
    "COMPOUND": "CC1=C(O)C(=O)C=C2C1=CC=C1[C@@]2(C)CC[C@@]2(C)C3C[C@@H](C)C(=O)[C@@H](O)[C@]3(C)CC[C@]12C (stereo not given in full)",
    "CLASS_NAME": "False"
  },
  {
    "COMPOUND": "CC(=O)Oc1ccc2c(c1)CC[C@@H]1C2[C@@H](O[N+](=O)[O-])C[C@@]2(C)C1CC[C@@H]2O (stereo not given in full)",
    "CLASS_NAME": "False"
  }
]

INPUT: Which outcome was entered for the compound O=C1OC[C@@H]2Cc3c([nH]c4ccccc34)[C@@H](c3ccc(O)cc3)N12 in this test?
OUTPUT: False

INPUT: Outcome? Cc1ccc(S(=O)(=O)OC(COC(=O)c2ccccc2)C(OS(=O)(=O)c2ccc(C)cc2)C(OS(=O)(=O)c2ccc(C)cc2)C(COC(=O)c2ccccc2)OS(=O)(=O)c2ccc(C)cc2)cc1 (stereo not given)
OUTPUT: False

INPUT: Record request — test call for COc1cccc(/C=C\c2cc(OC)c(OC)c(OC)c2)c1
OUTPUT: True

INPUT: Outcome? Cc1c2c(n(CCN(C)C)c1C)NN=C(C#N)S2(=O)=O
OUTPUT: False

INPUT: Please state the recorded outcome for this compound: OCc1c(-c2cccc3ccccc23)sc(-c2cccc3ccccc23)c1CO
OUTPUT: False

INPUT: What is the recorded call for this compound in the test? COC1=CC(=O)NCCN1
OUTPUT: False

INPUT: Short answer needed: outcome of this test for CC(=O)Nc1ccc(-c2nnc(SCC(=O)Nc3cccc(C)c3)o2)cc1 ?
OUTPUT: False

INPUT: Outcome logged for CCOC(=O)/C=C(/C(=O)OCC)n1ccc(=O)n(CC(=O)OCC)c1=O in this assay:
OUTPUT: True

INPUT: Tell me the recorded outcome of this test for C/C(CC(=O)Nc1ccccc1[N+](=O)[O-])=N\NC(N)=O .
OUTPUT: False

INPUT: Which result was noted for this compound in the test: C=C(Nc1ccc(OC)cc1OC)C(=O)Cc1cccc[n+]1[O-]
OUTPUT: False

INPUT: Hello, I am checking results. What call was entered for COc1c2nc(CCl)n(C)c(=O)c2c(OC)c2c(=O)n(C)c(CCl)nc12 ?
OUTPUT: False

INPUT: Please share the test call associated with COc1ccc(CCC2NCCc3cc(OC)c(OC)cc32)cc1 (stereo not given) .
OUTPUT: False

INPUT: Check the results log: what was the call for CC1(C)OC(=O)[C@@](C)([C@H](O)c2ccccc2)O1 ?
OUTPUT: False

INPUT: Could you check what this test reported for S=C1/C(=N/c2ccccc2)N(c2ccccc2)/C(=N\c2ccccn2)N1c1ccccc1 ?
OUTPUT: False

INPUT: For COc1c(C(=O)CC2c3c(cc4oc(C)cc(=O)c4c3OC)OC(=N)C2c2nc3ccccc3[nH]2)c(O)c(OC)c2occc12 (stereo not given) , which call appears in the assay record?
OUTPUT: False
